# Measured on: UniProtKB Q05941
# Sequence (Q05941 23-502): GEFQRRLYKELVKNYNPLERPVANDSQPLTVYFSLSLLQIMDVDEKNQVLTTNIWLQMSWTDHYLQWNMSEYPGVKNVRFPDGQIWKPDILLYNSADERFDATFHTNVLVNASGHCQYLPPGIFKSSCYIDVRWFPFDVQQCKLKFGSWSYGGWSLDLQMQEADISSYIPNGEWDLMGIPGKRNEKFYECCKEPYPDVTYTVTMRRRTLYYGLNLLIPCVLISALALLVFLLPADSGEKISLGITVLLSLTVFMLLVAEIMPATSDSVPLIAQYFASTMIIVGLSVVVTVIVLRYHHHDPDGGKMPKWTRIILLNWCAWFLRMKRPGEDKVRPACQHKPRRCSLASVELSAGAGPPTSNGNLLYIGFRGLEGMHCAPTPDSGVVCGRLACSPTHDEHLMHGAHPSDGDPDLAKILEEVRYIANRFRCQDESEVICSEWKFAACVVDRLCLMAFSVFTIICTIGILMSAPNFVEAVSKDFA
Value kind: pIC50
For clarity, pIC50 is expressed as the negative log10 of concentration in mol/L.

(Q) Name the recorded pIC50 of the molecule listed here: c1cc2c(c(-c3nnc(N4CCN5CCC4CC5)o3)c1)OCO2 [Compound 1]
(A) 7.66

// data source = patent US20120238553A1
